study_target: 5-Lipoxygenase (Rattus norvegicus)
Sequence (P12527 whole entry): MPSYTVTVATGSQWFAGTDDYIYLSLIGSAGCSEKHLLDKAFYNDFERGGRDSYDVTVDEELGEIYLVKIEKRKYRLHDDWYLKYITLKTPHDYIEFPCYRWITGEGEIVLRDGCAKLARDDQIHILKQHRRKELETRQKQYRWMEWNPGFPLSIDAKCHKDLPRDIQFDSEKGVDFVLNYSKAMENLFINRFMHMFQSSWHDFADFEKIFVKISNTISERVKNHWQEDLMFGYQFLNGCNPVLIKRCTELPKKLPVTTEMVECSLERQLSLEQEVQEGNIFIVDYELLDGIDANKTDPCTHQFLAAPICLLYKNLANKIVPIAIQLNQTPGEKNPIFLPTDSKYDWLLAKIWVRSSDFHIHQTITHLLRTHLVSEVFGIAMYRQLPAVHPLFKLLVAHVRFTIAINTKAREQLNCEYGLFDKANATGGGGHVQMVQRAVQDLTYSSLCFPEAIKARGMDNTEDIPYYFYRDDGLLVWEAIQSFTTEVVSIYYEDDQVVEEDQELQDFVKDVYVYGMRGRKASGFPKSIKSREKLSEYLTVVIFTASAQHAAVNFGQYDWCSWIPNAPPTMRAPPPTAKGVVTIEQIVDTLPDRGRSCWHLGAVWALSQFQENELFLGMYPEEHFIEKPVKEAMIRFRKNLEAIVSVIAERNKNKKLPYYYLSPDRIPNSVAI
protocol_details: ARBL whole cell 5-lipoxygenase assay (LTB4 formation in RBL-1 cells, A23187 stimulated)
condition: RBL-1 cells; read-out: ARBL IC50 (inhibition of LTB4 formation)
test_readout: IC50 (nM)

a. CC(=O)N(O)Cc1ccc2c(c1)OCc1ccccc1C2=O
b. CC(=O)N(O)Cc1ccccc1Nc1cccc(C)c1C
c. CNC(=O)N(O)Cc1ccccc1Nc1cccc(C(F)(F)F)c1
d. CNC(=O)N(O)Cc1c(C)n(C(=O)c2ccc(Cl)cc2)c2ccc(OC)cc12
Task: List the 4 compounds shown above, ordered by increasing IC50. Form entry: labels listed in requested order.
Result: c, b, a, d

P. CC(=O)N(O)C(C)c1ccc2c(c1)Cc1ccccc1-2 (stereo not shown)
Q. COC(=O)CCC(=O)N(O)Cc1c(C)n(C(=O)c2ccc(Cl)cc2)c2ccc(OC)cc12
Task: Could you check which of P and Q has a smaller value for IC50? Please identify the chosen entry by its label.
Result: P
